target or system: CETP (Homo sapiens, UniProt P11597)
Construct: CETP is obtained in partially purified form from human plasma; from tissue; host or cells: human plasma
Sequence (P11597 18-493): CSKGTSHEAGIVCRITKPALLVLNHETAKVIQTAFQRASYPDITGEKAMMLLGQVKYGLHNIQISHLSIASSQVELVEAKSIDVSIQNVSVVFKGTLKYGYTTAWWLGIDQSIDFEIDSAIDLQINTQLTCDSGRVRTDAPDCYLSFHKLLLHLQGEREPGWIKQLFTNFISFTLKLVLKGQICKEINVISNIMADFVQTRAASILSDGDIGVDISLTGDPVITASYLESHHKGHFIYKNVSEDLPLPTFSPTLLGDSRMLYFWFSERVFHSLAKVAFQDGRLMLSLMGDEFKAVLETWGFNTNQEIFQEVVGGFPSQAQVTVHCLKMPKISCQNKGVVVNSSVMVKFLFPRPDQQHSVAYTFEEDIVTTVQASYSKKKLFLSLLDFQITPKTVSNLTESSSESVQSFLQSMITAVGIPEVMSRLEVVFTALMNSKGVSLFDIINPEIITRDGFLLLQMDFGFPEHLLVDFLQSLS
protocol text: CETP-SPA test
Assay type: biochemical
measurement conditions: 3H-cholesterol ester transfer from HDL to biotin-LDL, 37° C., 18 h
value type: IC50 (nM)

Take a look at these entries with their results.
[
  {
    "sample smiles": "O[C@@H](c1ccc(C(F)(F)F)cc1)c1c(C2CCCC2)nc2c(c1-c1ccsc1)[C@@H](O)CC1(CCC1)C2",
    "value type": "IC50",
    "recorded number": 35
  },
  {
    "sample smiles": "O[C@@H](c1ccc(C(F)(F)F)cc1)c1c(C2CCCC2)nc2c(c1C1CCCCC1)[C@@H](O)CC1(CCC1)C2",
    "value type": "IC50",
    "recorded number": 15
  }
]

[1] CC(C)c1nc2c(c(-c3ccc(F)cc3)c1[C@@H](O)c1ccc(C(F)(F)F)cc1)[C@@H](O)CC1(CCC1)C2
[2] CC(C)c1nc2c(c(-c3cccs3)c1[C@@H](O)c1ccc(C(F)(F)F)cc1)[C@@H](O)CC1(CCC1)C2
Higher IC50: 1 or 2 ? Reply briefly: the label of your chosen item.
2
